Entry source: PubChem BioAssay AID588726

Subject Of Test: Fructose-bisphosphate aldolase (Mycobacterium tuberculosis (strain ATCC 25618 / H37Rv))
Protocol Description: Mtb FBA enzyme inhibitors, primary screen, biochemical, fluorescence, strain H37Rv (AID 588726);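 also: 0% = vehicle and 100% = reference inhibitor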
Assay Setup: purified M. tuberculosis FBA, fluorescence read-out, at 1 µM, stronger effect = higher value
Screen size: about 360,000 compounds; about 8,200 (2.3%) were called active. This is one part of a sample in which actives are shown more often than they occur.
As shown below, each of these compounds has a reported inhibition value.

{"columns": ["Compound", "inhibition"],
 "data": [
  ["CC(=O)NC12CC3CC(C1)CC(C(=O)N1CCN(S(=O)(=O)c4cccs4)CC1)(C3)C2", "-0.81% (inactive)"],
  ["COc1ccc2c(c1)OC(O)(C(F)(F)C(F)F)CC2=O (configuration not stated)", "-0.78% (inactive)"],
  ["Nc1c(N(CCO)C(=O)C2CCCCC2)c(=O)[nH]c(=O)n1Cc1ccccc1", "5.19% (inactive)"],
  ["CCCNc1ncnc2sc(C)c(C)c12", "2.22% (inactive)"],
  ["COc1ccc(S(=O)(=O)N2CCC(C(=O)NCCC(=O)NCCc3cccc(F)c3)CC2)cc1", "3.06% (inactive)"],
  ["Cn1c(-c2ccc(C(=O)c3ccccc3)s2)nc2ccccc21", "1.32% (inactive)"],
  ["Cc1ccc(S(=O)(=O)c2c(N)n(C)c3nc4ccccc4nc23)cc1", "195% (active)"],
  ["O=C(CN(C(=O)c1nsc(Cl)c1Cl)c1cccc(F)c1)NC1CCCC1", "0.07% (inactive)"],
  ["O=C(CSc1ncccn1)N1CCCC1", "1.75% (inactive)"],
  ["COc1ccc(CNC(=O)CN(C(=O)c2csnn2)c2cnc3ccccc3c2)cc1", "3.6% (inactive)"],
  ["Cc1cccc(-c2cnc(C(O)c3cc(C)cc(C)c3)[nH]2)c1 (configuration not stated)", "-2% (inactive)"],
  ["CC(C)(C)C(=O)CN1C2=NCCN2c2ccccc21", "-3.57% (inactive)"],
  ["O=c1[nH]c(=O)n(Cc2ccco2)c2c1C(C(F)(F)F)(C(F)(F)F)N=C(c1ccco1)N2", "1.76% (inactive)"],
  ["CCN(CC)C(=O)C1=C(C)N(Cc2ccc(F)cc2)C(=O)C(CC(=O)NC2CCCC2)C1 (configuration not stated)", "-1.29% (inactive)"],
  ["COC(=O)CN1C(=O)[C@H]2[C@@H](/C=C/c3ccccc3)N3C(=O)CN(CC4CC4)C(=O)[C@@]3(Cc3ccccc3)[C@H]2C1=O", "5.08% (inactive)"],
  ["Cc1ccc(C2=NN(C)c3nc4ccccc4n3C2)cc1", "13.4% (inactive)"],
  ["COc1ccccc1NC(=O)N(O)C1(C#N)CCCCC1", "1.6% (inactive)"],
  ["CCC(=O)Nc1c(S(=O)(=O)c2ccccc2)c2nc3ccccc3nc2n1Cc1ccccc1", "71.7% (active)"],
  ["Cc1ccccc1N1CCN(CCCN2C(=O)C3CCCCN3C2=O)CC1 (configuration not stated)", "0.31% (inactive)"],
  ["N#CCCN1CCN(S(=O)(=O)c2ccc(S(=O)(=O)NC3CC3)cc2)CC1", "-0.2% (inactive)"],
  ["Cn1cccc1-c1nc2ccccc2n1C", "28.6% (active)"],
  ["CCN(CCn1cccn1)C(=O)CC1C(=O)NCCN1Cc1cccc(OC)c1OC (configuration not stated)", "0.01% (inactive)"]
]}
